Biological target: IL-23R (Homo sapiens, UniProt Q5VWK5);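 further: cryopreserved PBMCs stimulated at 37 °C in 5% CO2, then lysed, with phosphorylated STAT3 quantified in lysates using a phospho-STAT panel kit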
Sequence (Q5VWK5 24-629): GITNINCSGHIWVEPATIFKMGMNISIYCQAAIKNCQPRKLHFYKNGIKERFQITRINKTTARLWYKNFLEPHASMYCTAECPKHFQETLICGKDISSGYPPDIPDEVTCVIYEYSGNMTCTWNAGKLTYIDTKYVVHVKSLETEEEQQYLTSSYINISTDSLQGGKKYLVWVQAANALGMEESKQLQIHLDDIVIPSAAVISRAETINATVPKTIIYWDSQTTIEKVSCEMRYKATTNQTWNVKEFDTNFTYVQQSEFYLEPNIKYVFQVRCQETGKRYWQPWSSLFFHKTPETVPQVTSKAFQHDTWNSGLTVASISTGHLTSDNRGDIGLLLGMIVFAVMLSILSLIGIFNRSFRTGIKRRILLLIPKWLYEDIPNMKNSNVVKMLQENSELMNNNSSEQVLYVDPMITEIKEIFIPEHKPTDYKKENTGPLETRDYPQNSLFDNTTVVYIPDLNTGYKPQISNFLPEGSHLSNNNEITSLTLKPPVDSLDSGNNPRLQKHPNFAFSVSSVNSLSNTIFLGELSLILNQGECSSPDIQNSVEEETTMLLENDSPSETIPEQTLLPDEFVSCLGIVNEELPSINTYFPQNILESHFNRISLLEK
Test: cell-based
Conditions: PBMC pSTAT3 IC50 (nM), PBMCs from healthy donors, IL-23 5 ng/mL, 30 minutes, phosphorylated STAT3
Positions of bridges follow the written chain, without caps; N, C: chain ends. Non-standard residues stand in square brackets, D forms with d. Residues, ends and D or L forms follow the SMILES beside them. Trp(7-Me) = Cc1cccc2c(C[C@H](N)C(=O)O)c[nH]c12; 2Nal = N[C@@H](Cc1ccc2ccccc2c1)C(=O)O; AEF = NCCOc1ccc(C[C@H](N)C(=O)O)cc1; Cit = NC(=O)NCCC[C@H](N)C(=O)O; αMeL = CC(C)C[C@](C)(N)C(=O)O; Pen = CC(C)(S)[C@H](N)C(=O)O; Ac5c = NC1(C(=O)O)CCCC1; Thp = NC1(C(=O)O)CCOCC1
IC50: recorded values

molecule	test-target	IC50 (nM)
CC(=O)NCCCC[C@H](NC(=O)[C@](C)(CC(C)C)NC(=O)[C@H](Cc1ccc2ccccc2c1)NC(=O)[C@H](Cc1ccc(OCCN)cc1)NC(=O)[C@H]1NC(=O)[C@H](CCCNC(N)=O)NC(=O)[C@H](Cc2c[nH]c3c(C)cccc23)NC(=O)[C@H]([C@@H](C)O)NC(=O)[C@H](CC(N)=O)NC(=O)[C@@H](NC(C)=O)C(C)(C)SSC1(C)C)C(=O)N[C@@H](CC(N)=O)C(=O)NC1(C(N)=O)CCOCC1 [Compound 108] (Ac-[Pen]NT[Trp(7-Me)][Cit][Pen][AEF][2Nal][αMeL]K(Ac)N[Thp]-NH2; disulfide 1-6)	IL-23R (Homo sapiens, UniProt Q5VWK5)	5.1
CC(=O)N[C@H](CCCNC(=N)N)C(=O)N[C@@H]1C(=O)N[C@@H](CC(N)=O)C(=O)N[C@@H]([C@@H](C)O)C(=O)N[C@@H](Cc2c[nH]c3c(C)cccc23)C(=O)N[C@@H](CCC(N)=O)C(=O)N[C@H](C(=O)N[C@@H](Cc2ccc(OCCN)cc2)C(=O)N[C@@H](Cc2ccc3ccccc3c2)C(=O)NC2(C(=O)N[C@@H](CCC(=O)O)C(=O)N[C@@H](CC(N)=O)C(=O)NC3(C(N)=O)CCOCC3)CCCC2)C(C)(C)SSC1(C)C [Compound 99] (Ac-[dR][Pen]NT[Trp(7-Me)]Q[Pen][AEF][2Nal][Ac5c]EN[Thp]-NH2; disulfide 2-7)	IL-23R (Homo sapiens, UniProt Q5VWK5)	4.2

---

Molecular target: UniProt Q5VWK5
Assay: cell-based
Conditions: PBMC pSTAT3 IC50 (nM), PBMCs from healthy donors, IL-23 5 ng/mL, 30 minutes, phosphorylated STAT3
Starred links: 1 amine or outer side, 2 acyl side, 3 side chain; linkers in the order of their positions; H or OH if unused. Positions of bridges follow the written chain, without caps; N, C: chain ends. Non-standard residues stand in square brackets, D forms with d. Residues, ends and D or L forms follow the SMILES beside them. *: point of attachment. X3 = C[C@H](c1ccc2ccccc2c1)[C@H](N[*:1])C(=O)[*:2]; 2Nal = N[C@@H](Cc1ccc2ccccc2c1)C(=O)O; AEF = NCCOc1ccc(C[C@H](N)C(=O)O)cc1; Pen = CC(C)(S)[C@H](N)C(=O)O; αMeK = C[C@](N)(CCCCN)C(=O)O; Thp = NC1(C(=O)O)CCOCC1; Propionyl = CCC(=O)*
measurement-label: log10(IC50) (log10 of the value in nM)

molecule	log10(IC50)
CCC(=O)N[C@H](CCCNC(=N)N)C(=O)N[C@@H]1C(=O)N[C@@H](CCC(N)=O)C(=O)N[C@@H]([C@@H](C)O)C(=O)N[C@@H](Cc2c[nH]c3ccccc23)C(=O)N[C@@H](CCC(N)=O)C(=O)N[C@H](C(=O)N[C@@H](Cc2ccc(OCCN)cc2)C(=O)N[C@H](C(=O)NC2(C(=O)N[C@@H](CCC(=O)O)C(=O)N[C@@H](CC(N)=O)C(=O)NC3(C(N)=O)CCOCC3)CCOCC2)[C@H](C)c2ccc3ccccc3c2)C(C)(C)SSC1(C)C [Compound 307] (Propionyl-[dR][Pen]QTWQ[Pen][AEF][X3][Thp]EN[Thp]-NH2; disulfide 2-7)	1.72
CC(=O)NCCCC[C@@H]1NC(=O)[C@H](Cc2c[nH]c3ccccc23)NC(=O)[C@H]([C@@H](C)O)NC(=O)[C@H](CCC(N)=O)NC(=O)[C@@H](NC(C)=O)C(C)(C)SSC(C)(C)[C@@H](C(=O)N[C@@H](Cc2ccc(OCCN)cc2)C(=O)N[C@@H](Cc2ccc3ccccc3c2)C(=O)N[C@@](C)(CCCCN)C(=O)N[C@@H](CCCCNC(C)=O)C(=O)N[C@@H](CC(N)=O)C(=O)NC2(C(N)=O)CCOCC2)NC1=O [Compound 84] (Ac-[Pen]QTWK(Ac)[Pen][AEF][2Nal][αMeK]K(Ac)N[Thp]-NH2; disulfide 1-6)	1.73
CC(=O)N[C@H](CCCNC(=N)N)C(=O)N[C@@H]1C(=O)N[C@@H](CCC(N)=O)C(=O)N[C@@H]([C@@H](C)O)C(=O)N[C@@H](Cc2c[nH]c3ccccc23)C(=O)N[C@@H](CCC(N)=O)C(=O)N[C@H](C(=O)N[C@@H](Cc2ccc(OCCN)cc2)C(=O)N[C@@H](Cc2ccc3ccccc3c2)C(=O)NC2(C(=O)N[C@@H](CCCCNC(=O)C3CC3)C(=O)N[C@@H](CC(N)=O)C(=O)NC3(C(N)=O)CCOCC3)CCOCC2)C(C)(C)SSC1(C)C	1.43
CC(=O)NCCCC[C@@H]1NC(=O)[C@H](Cc2c[nH]c3c(C)cccc23)NC(=O)[C@H]([C@@H](C)O)NC(=O)[C@H](CC(N)=O)NC(=O)[C@@H](NC(C)=O)C(C)(C)SSC(C)(C)[C@@H](C(=O)N[C@@H](Cc2ccc(OCCN)cc2)C(=O)N[C@@H](Cc2ccc3ccccc3c2)C(=O)NC2(C(=O)N[C@@H](CCCCNC(=O)C(C)(C)C)C(=O)N[C@@H](CC(N)=O)C(=O)N[C@@](C)(Cc3ccccc3)C(N)=O)CCOCC2)NC1=O	0.82
CC(=O)NCCCC[C@H](NC(=O)[C@](C)(CCCCN)NC(=O)[C@H](Cc1ccc2ccccc2c1)NC(=O)[C@H](Cc1ccc(OCCN)cc1)NC(=O)[C@]1(C)CSSC[C@H](NC(C)=O)C(=O)N[C@@H](CC(N)=O)C(=O)N[C@@H]([C@@H](C)O)C(=O)N[C@@H](Cc2c[nH]c3c(C)cccc23)C(=O)N[C@@H](CCC(N)=O)C(=O)N1)C(=O)N[C@@H](CC(N)=O)C(=O)NC1(C(N)=O)CCOCC1	0.69
